The measured values listed here are drawn from patent US5250542A.

tested-on: peripheral opioid receptors (Mus musculus)
Construct: Mice maintained (6 mice/cage) on 0.01M saccharin water with 1 g/1 morphine sulfate; from tissue; host or cells: living morphine-maintained mice (in vivo test; endogenous receptor)
Sequence (P42866 whole entry): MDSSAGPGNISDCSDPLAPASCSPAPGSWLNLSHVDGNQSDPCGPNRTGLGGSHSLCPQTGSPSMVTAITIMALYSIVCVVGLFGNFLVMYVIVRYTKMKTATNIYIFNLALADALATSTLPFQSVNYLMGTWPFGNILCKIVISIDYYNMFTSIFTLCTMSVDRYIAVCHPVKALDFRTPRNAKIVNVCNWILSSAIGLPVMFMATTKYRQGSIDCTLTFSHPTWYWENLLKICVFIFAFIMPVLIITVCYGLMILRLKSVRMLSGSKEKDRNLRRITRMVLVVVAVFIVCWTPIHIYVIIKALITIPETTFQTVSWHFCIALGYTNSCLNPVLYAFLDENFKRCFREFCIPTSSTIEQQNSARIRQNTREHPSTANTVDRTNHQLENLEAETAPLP
experimental-protocol: precipitated diarrhea in morphine-maintained mice (peripheral opioid activity) and comparison with the writhing test
Assay type: in vivo
experimental-parameters: mouse, 0.5 h, morphine-maintained mice; antagonist subcutaneous or oral; 30 min observation
Counter-ions that a name gives are not always drawn.
reported-endpoint: ED50 (mg/kg)
Numbers only, in mg/kg.

Here's what some known entries look like.
1) CCOC(=O)CCCNC(=O)C(CCN1CC[C@@](C)(c2cccc(O)c2)[C@@H](C)C1)C1CCCCC1 (relative stereo) [Example 23, monohydrochloride monohydrate] ... 0.14
2) CCCNC(=O)CNC(=O)C(Cc1ccccc1)CN1CC[C@@](C)(c2cccc(O)c2)[C@@H](C)C1 (stereo partly drawn) [Example 49, monohydrate hydrochloride] ... 0.1

Note: attention shifts to another entry.
Please report the recorded ED50 for CCOC(=O)CNC(=O)CNC(=O)C(Cc1ccccc1)CN1CC[C@@](C)(c2cccc(O)c2)[C@@H](C)C1 (relative stereo) [Example 67, monohydrochloride] .
0.15
